Collected amyloid nucleation score values appear next to each entry.
procedure_summary: amyloid nucleation score (Sup35N fusion, yeast selection) (log enrichment); library NNK2; higher = more nucleation; inactive = no reads after selection;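 note: zero at mode of non-aggregating sequences after 7 days selection at 30°C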
Provide a numeric answer; units are not to be included.

The examples below pair each entry with its known result.
residue_sequence	measured_attribute	experimental_result
FTCNACGYERSSVAYRNNPL	amyloid nucleation score	-0.22
RKCLGLRSYATTFRVDQHSC	amyloid nucleation score	0.266
KIYSTSYDNNTSYISCVWSH	amyloid nucleation score	6.71
RMVLSGNLLQRNRNYPNQRM	amyloid nucleation score	2.03
WSYQYRLPILTTFSDFVWRK	amyloid nucleation score	-0.339

Shift focus to the following entry.
Prompt: Read off the recorded amyloid nucleation score for "RGSGKCYRAGFMIAIVTHPL"
Completion: 1.5

----------
procedure_summary: amyloid nucleation score (Sup35N fusion, yeast selection) (log enrichment); library NNK3; higher = more nucleation; inactive = no reads after selection
measured_attribute: amyloid nucleation score

residue_sequence	experimental_result
MLMVLRGRSRDNNVQSLLFA	-0.292
FISINTPPCLCMS	inactive
AYCPKTALEVY	inactive
FGEYVIRMSNCTLPKIMVIP	inactive
VRSLDNQLSVDFFFVGPVGF	1.3
PTKMCCLFTVIF	2.13
GTKWSATITGWV	inactive
FAILNFGMSSIIFVCLTCAN	inactive
YSCVEDSGCVCKNPLVISEF	inactive

Shift focus to the following entry.
Prompt: Read off the recorded amyloid nucleation score for "WFLVNRDWFLGCQVTGEVLI"
Completion: inactive

----------
Collected amyloid nucleation score values appear next to each entry.
procedure_summary: amyloid nucleation score (Sup35N fusion, yeast selection) (log enrichment); library NNK2; higher = more nucleation; inactive = no reads after selection
Provide a numeric answer; units are not to be included.

The examples below pair each entry with its known result.
substance	amyloid nucleation score
NNSYVFFFI	7.01
LKVRKLSLARCVGIHTLQT	4.4

Prompt: Read off the recorded amyloid nucleation score for "KGAFANL"
Completion: -1.63

Prompt: Read off the recorded amyloid nucleation score for "PISTSLADR"
Completion: 1.21

Prompt: Read off the recorded amyloid nucleation score for "YCHPILMRYKPVYTCHYSLM"
Completion: 4.86

Prompt: Read off the recorded amyloid nucleation score for "SVNAIRTQGLRSRMQFMKTG"
Completion: -0.394

Prompt: Read off the recorded amyloid nucleation score for "YLIPFMYAKCLSWVILRK"
Completion: 0.029

Prompt: Read off the recorded amyloid nucleation score for "QVPGYIAQSKML"
Completion: 0.407

----------
procedure_summary: amyloid nucleation score (Sup35N fusion, yeast selection) (log enrichment); library NNK2; higher = more nucleation; inactive = no reads after selection
measured_attribute: amyloid nucleation score

residue_sequence	amyloid nucleation score
SFDFHNGGDIEYLV	inactive
FSFRVMRHSKKGK	inactive
CFVRTVFL	inactive
SLMFGLIHSWDMK	inactive

Shift focus to the following entry.
Prompt: Read off the recorded amyloid nucleation score for "GFWVDQNSDPNWVSQAPDFM"
Completion: inactive

----------
procedure_summary: amyloid nucleation score (Sup35N fusion, yeast selection) (log enrichment); library NNK1; higher = more nucleation; inactive = no reads after selection
# if value of amyloid nucleation score reaches -0.05, tag 1 (yes); if it stays below, tag 0 (no)

substance	category_label
MSRMFRVLHRVLSSW	0 (no)
NSHHKKGHVKRAVRLLHYPV	1 (yes)
WVNCLFIYWFCFDALPIIVE	0 (no)
FPYILMKRAKQYALGPRHLL	0 (no)
ATCPLYEVLSCYARVKFANT	0 (no)

Prompt: Assess whether reported amyloid nucleation score for "NLGLDVCEYIVVTWLTNDWS" sits at -0.05 or higher.
Completion: 0 (no)

Prompt: Assess whether reported amyloid nucleation score for "QSSYVLCHFILE" sits at -0.05 or higher.
Completion: 0 (no)

These measurements were taken from the supplement of paper PMC12042874.
